For each entry below, report its pIC50 value.
target-of-assay: full-length human PRMT8 isoform 1 (Homo sapiens, UniProt Q9NR22)
Sequence (Q9NR22 whole entry, canonical isoform): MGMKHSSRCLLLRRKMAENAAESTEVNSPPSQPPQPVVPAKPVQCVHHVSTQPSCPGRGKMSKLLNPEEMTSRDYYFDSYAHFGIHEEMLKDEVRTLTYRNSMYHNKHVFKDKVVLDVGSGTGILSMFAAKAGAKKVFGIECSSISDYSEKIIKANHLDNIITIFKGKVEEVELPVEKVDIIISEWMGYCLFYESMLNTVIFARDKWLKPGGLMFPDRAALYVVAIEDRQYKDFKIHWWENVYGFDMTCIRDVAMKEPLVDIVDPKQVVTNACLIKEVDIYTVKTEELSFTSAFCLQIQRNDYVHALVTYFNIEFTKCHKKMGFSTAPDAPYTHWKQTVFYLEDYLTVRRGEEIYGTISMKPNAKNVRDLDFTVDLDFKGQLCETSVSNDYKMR
protocol-summary: PRMT8 Biochemical Assay (3H-SAM Flashplate, peptide substrate)
test-parameters: read-out: Biochemical IC50 PRMT8
pIC50: −log10 of the molar value.

Task: So what's the measured pIC50 for this one? CNCCN(C)Cc1c[nH]nc1C1CCCC(COCCC(O)CO)C1 (stereo not drawn)
Result: 6.00 to 7.00

Task: Same question, "CNCCN(C)Cc1c[nH]nc1[C@H]1CC[C@H](C(=O)N(C)CCOc2ccccc2)CC1" this time
Result: > 7.00

Task: Same question, "CNCCN(C)Cc1c[nH]nc1C1CCC(=O)CC1" this time
Result: > 7.00

Task: Same question, "CN(CCN)Cc1c[nH]nc1C1CC1" this time
Result: < 5.00

Task: Same question, CNCCN(C)Cc1c[nH]nc1C1CC(COC)CC(COC)C1 (stereo not drawn) this time
Result: 5.52 to 6.00

Task: Same question, "CNCCN(C)Cc1c[nH]nc1[C@H]1CC[C@H](OC2CCCCC2)CC1" this time
Result: 6.00 to 7.00

Task: Same question, "CNCCN(C)Cc1c[nH]nc1[C@H]1CC[C@H](N(CCOC)C(=O)CCC(C)C)CC1" this time
Result: > 7.00

Task: Same question, "CCN(C(=O)CCC(C)C)[C@H]1CC[C@H](c2n[nH]cc2CN(C)CCNC)CC1" this time
Result: > 7.00

Task: Same question, "CNCCN(C)Cc1c[nH]nc1[C@H]1CC[C@]2(CCOC2(C)C)CC1" this time
Result: > 7.00

###

For each entry below, report its IC50 value.
target-of-assay: full-length human PRMT6 (Flag- and His-tagged) (Homo sapiens, UniProt Q96LA8)
Sequence (Q96LA8 with tags, fused parts or gaps): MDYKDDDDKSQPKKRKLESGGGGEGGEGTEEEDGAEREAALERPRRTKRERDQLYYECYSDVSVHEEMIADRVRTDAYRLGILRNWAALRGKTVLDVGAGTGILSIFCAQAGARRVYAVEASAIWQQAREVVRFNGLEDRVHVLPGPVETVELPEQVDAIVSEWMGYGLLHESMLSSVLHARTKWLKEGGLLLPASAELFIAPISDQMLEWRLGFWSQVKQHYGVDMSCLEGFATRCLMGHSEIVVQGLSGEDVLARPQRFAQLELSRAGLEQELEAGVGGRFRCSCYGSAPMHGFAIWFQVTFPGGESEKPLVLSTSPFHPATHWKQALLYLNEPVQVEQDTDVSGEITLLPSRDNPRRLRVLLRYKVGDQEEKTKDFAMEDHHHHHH
protocol-summary: PRMT6 Biochemical Assay (3H-SAM Flashplate, peptide substrate)
test-parameters: read-out: Biochemical IC50 PRMT6
Where a name gives a salt, the structure may show the parent alone.

Task: So what's the measured IC50 for this one? CNCCN(C)Cc1c[nH]nc1[C@H]1CC[C@@H](OC2CCCCC2)CC1 [Compound 140]
Result: < 100 nM

Task: Same question, CNCCN(C)Cc1c[nH]nc1[C@H]1CCC(C)(C)[C@@H](C(=O)NCCOC)C1 [Compound 268] this time
Result: 101 to 1000 nM

Task: Same question, CNCCN(C)Cc1c[nH]nc1C1CCC2(CC1)NC(=O)NC2=O (centres unmarked) [Compound 175] this time
Result: < 100 nM

Task: Same question, CNCCN(C)Cc1c[nH]nc1C1CCC(COC)CC1 (centres unmarked) [Compound 53] this time
Result: < 100 nM

Task: Same question, CNCCN(C)Cc1c[nH]nc1C1CCC(C)(C)[C@@H](C(=O)OC)C1 (some centres unmarked) [Compound 255] this time
Result: < 100 nM

Task: Same question, CNCCN(C)Cc1c[nH]nc1[C@H]1CC[C@H](N(CCC(C)C)C(=O)CCOC)CC1 [Compound 236] this time
Result: < 100 nM

Task: Same question, CNCCN(C)Cc1c[nH]nc1[C@H]1CC[C@H](N(CC(C)C)C(=O)CCOc2ccccc2)CC1 [Compound 232] this time
Result: < 100 nM

Task: Same question, CNCCN(C)Cc1c[nH]nc1[C@H]1CC[C@@]2(CC1)CC(C)(C)CO2 [Compound 133] this time
Result: < 100 nM

Task: Same question, CNCCN(C)Cc1c[nH]nc1C1CCC2(CCC(C)(C)CC2)OC1 (centres unmarked) [Compound 65] this time
Result: < 100 nM

Task: Same question, CNCCN(C)Cc1c[nH]nc1[C@H]1CC[C@@H](N(CC(C)C)C(=O)CCOC)CC1 [Compound 233] this time
Result: < 100 nM

Task: Same question, CNCCN(C)Cc1c[nH]nc1C1CCC(OC(C)C)CC1 (centres unmarked) [Compound 56] this time
Result: < 100 nM

Task: Same question, CNCCN(C)Cc1c[nH]nc1C1CCC(COC)(COC)CC1 [Compound 57] this time
Result: < 100 nM

Task: Same question, CNCCN(C)Cc1c[nH]nc1[C@H]1CC[C@H](C(C)C)CC1 [Compound 180] this time
Result: < 100 nM

Task: Same question, CCN(C(=O)CC(C)C)[C@H]1CC[C@H](c2n[nH]cc2CN(C)CCNC)CC1 [Compound 239] this time
Result: < 100 nM

Task: Same question, CNCCN(C)Cc1c[nH]nc1C1CCC(=O)CC1 [Compound 194] this time
Result: < 100 nM

Task: Same question, CCOC1CC(OCC)CC(c2n[nH]cc2CN(C)CCNC)C1 (centres unmarked) [Compound 132] this time
Result: 3010 to 10000 nM

Task: Same question, CNCCN(C)Cc1c[nH]nc1[C@H]1CC[C@H](C(=O)N(C)CCC(C)C)CC1 [Compound 209] this time
Result: < 100 nM

Task: Same question, CNCCN(C)Cc1cn(C)nc1C1CCC2(CCCC2)CC1 [Compound 47] this time
Result: < 100 nM

Task: Same question, CCN1CC2(CCC(c3n[nH]cc3CN(C)CCNC)CC2)N(C)C1=O (centres unmarked) [Compound 154] this time
Result: < 100 nM

Task: Same question, CC[C@H]1CC[C@H](c2n[nH]cc2CN(C)CCNC)CC1 [Compound 148] this time
Result: < 100 nM

Task: Same question, CNCCN(C)Cc1c[nH]nc1C1CCC(C)(C)[C@H](C(=O)NCC(C)C)C1 (some centres unmarked) [Compound 262] this time
Result: < 100 nM

Task: Same question, CNCCN(C)Cc1c[nH]nc1C1CCC2(CC1)C(=O)N(C)C(=O)N2C (centres unmarked) [Compound 171] this time
Result: < 100 nM

Task: Same question, CCN(C(=O)CCC(C)C)[C@H]1CC[C@@H](c2n[nH]cc2CN(C)CCNC)CC1 [Compound 251] this time
Result: < 100 nM

Task: Same question, CNCCN(C)Cc1c[nH]nc1[C@@H]1CCC(C)(C)[C@@H](C(=O)NCCCOC)C1 [Compound 271] this time
Result: 101 to 1000 nM

Task: Same question, CNCCN(C)Cc1c[nH]nc1C1CCC(OCC(C)C)CC1 (centres unmarked) [Compound 153] this time
Result: < 100 nM

Task: Same question, CNCCN(C)Cc1c[nH]nc1[C@H]1CC[C@@]2(CCN(Cc3cc(F)cc(F)c3)C2=O)CC1 [Compound 126] this time
Result: < 100 nM

Task: Same question, CCC(=O)N(CC1CCOCC1)[C@H]1CC[C@@H](c2n[nH]cc2CN(C)CCNC)CC1 [Compound 108] this time
Result: 101 to 1000 nM

Task: Same question, CNCCN(C)Cc1c[nH]nc1C1CCC(C)(C)[C@H](C(=O)NCCOC)C1 (some centres unmarked) [Compound 264] this time
Result: 101 to 1000 nM

Task: Same question, CNCCN(C)Cc1n[nH]cc1[C@H]1CC[C@H](C(=O)NCCC(C)C)CC1 [Compound 203] this time
Result: < 100 nM

Task: Same question, CNCCN(C)Cc1c[nH]nc1C1CCC(C)(C)[C@H](C(=O)OC)C1 (some centres unmarked) [Compound 256] this time
Result: < 100 nM

Task: Same question, CNCCN(C)Cc1c[nH]nc1C1CCC2(CCCO2)CC1 (centres unmarked) [Compound 51] this time
Result: < 100 nM

Task: Same question, CNCCN(C)Cc1n[nH]cc1[C@H]1CC[C@@]2(CC1)CC(C)(C)CO2 [Compound 200, trifluoroacetic acid salt] this time
Result: < 100 nM

Task: Same question, CNCCN(C)Cc1c[nH]nc1[C@H]1CC[C@H](OCCOc2ccc(OC)cc2)CC1 [Compound 186] this time
Result: 101 to 1000 nM

Task: Same question, CNCCN(C)Cc1c[nH]nc1[C@H]1CC[C@H](C(=O)N(C)CCOc2ccccc2)CC1 [Compound 258] this time
Result: < 100 nM

Task: Same question, CCN(C(=O)CC1CCOCC1)[C@H]1CC[C@@H](c2n[nH]cc2CN(C)CCNC)CC1 [Compound 196] this time
Result: 101 to 1000 nM
